# assayedTarget: T1, IFN-α4a (human, UniProt P05014 24-189)
# T1 construct: also called IFN-αM1
# assayText: ProteOn, one antigen concentration
In this section we review reported Kd values for a set of binders.
Quick note: give the figure in nM, leave out the unit.

Example cases with answers are listed next.
IFWM3338 (antibody, V domains shown, VH IFWH591, VL IFWL1091; converted mAb; also called IFWB3073) VH: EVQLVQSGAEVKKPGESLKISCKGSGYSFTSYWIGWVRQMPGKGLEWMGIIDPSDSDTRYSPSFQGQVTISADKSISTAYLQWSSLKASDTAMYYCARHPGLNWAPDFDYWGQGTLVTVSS VL: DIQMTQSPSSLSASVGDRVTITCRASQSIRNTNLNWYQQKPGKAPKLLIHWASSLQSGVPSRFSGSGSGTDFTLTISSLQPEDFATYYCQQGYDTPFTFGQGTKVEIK	0.319
IFWM3358 (antibody, V domains shown, VH IFWH624, VL IFWL1041; converted mAb; also called IFWB3093) VH: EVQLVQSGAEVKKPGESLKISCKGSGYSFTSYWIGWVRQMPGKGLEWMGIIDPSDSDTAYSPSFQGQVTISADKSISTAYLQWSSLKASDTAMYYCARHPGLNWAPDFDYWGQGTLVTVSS VL: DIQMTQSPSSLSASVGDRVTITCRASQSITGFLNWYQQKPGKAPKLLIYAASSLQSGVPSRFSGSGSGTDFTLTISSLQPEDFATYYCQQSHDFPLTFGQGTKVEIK	0.319

Proceeding to the next binder to report its Kd.
**Q:** Using the record for IFWM3309 (antibody, V domains shown, VH IFWH591, VL IFWL1006; converted mAb; also called IFWB3044) VH: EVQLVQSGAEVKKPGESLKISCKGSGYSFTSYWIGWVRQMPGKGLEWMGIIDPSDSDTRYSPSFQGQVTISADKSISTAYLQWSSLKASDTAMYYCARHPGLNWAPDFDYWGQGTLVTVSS VL: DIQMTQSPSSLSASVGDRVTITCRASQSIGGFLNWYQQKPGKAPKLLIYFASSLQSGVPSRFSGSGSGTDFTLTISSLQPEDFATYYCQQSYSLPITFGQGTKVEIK , state its measured Kd.
**A:** 0.383

Cited source for all entries: patent US20150368338A1
